- System: biotinyl-Met-oxazolone
- ASSAY_COMMENT: self-aminoacylation, catalytic enhancement (BMO) (fold over background); higher = more active; k-Seq, kA / k0A0; sequences stand for … in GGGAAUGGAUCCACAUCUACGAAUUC…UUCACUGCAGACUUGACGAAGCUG
Fewer inactive variants are shown than the library holds.
PROPERTY_NAME: self-aminoacylation

Problem: Recorded self-aminoacylation of AUUACCCUGGUCCUCGAGCGA [Fam2.1 aminoacylation ribozyme variant] , please.
Solution: 1.97

Problem: Recorded self-aminoacylation of CCACACUUCGAGCAAUAGGUC [Fam1B.1 aminoacylation ribozyme variant] , please.
Solution: 0.588

Problem: Recorded self-aminoacylation of AUGACCCUGGUCCUCGAGUGA [Fam2.1 aminoacylation ribozyme variant] , please.
Solution: 3.2

Problem: Recorded self-aminoacylation of AUGCACCUAGGUCAUUGGGUG [Fam2.2 aminoacylation ribozyme variant] , please.
Solution: 2.3

Problem: Recorded self-aminoacylation of AGUCACCUGGGUCAUCGGGUG [Fam2.2 aminoacylation ribozyme variant] , please.
Solution: 3.98

Problem: Recorded self-aminoacylation of AUUCACCCAGGUCAUCGCGUG [Fam2.2 aminoacylation ribozyme variant] , please.
Solution: 16

Problem: Recorded self-aminoacylation of GUUACCCUGGACAUCGAGUGA [Fam2.1 aminoacylation ribozyme variant] , please.
Solution: 8.05

Problem: Recorded self-aminoacylation of CCACGCUCCAAGCAAUCGGUC [Fam1B.1 aminoacylation ribozyme variant] , please.
Solution: 1.07

Problem: Recorded self-aminoacylation of AUUCACCUAAGUCGUCGGGUG [Fam2.2 aminoacylation ribozyme variant] , please.
Solution: 2.18

Problem: Recorded self-aminoacylation of AUUCACUUAUGUCAUCGGGUG [Fam2.2 aminoacylation ribozyme variant] , please.
Solution: 5.5

Problem: Recorded self-aminoacylation of AUUGACCUAGGUAAUCGGGUG [Fam2.2 aminoacylation ribozyme variant] , please.
Solution: 2.92

Problem: Recorded self-aminoacylation of AUUACCCUGAUAAUCGAGUGA [Fam2.1 aminoacylation ribozyme variant] , please.
Solution: 9.64

Problem: Recorded self-aminoacylation of CUAAUUGAAACAAUCGGUCUG [Fam1A.1 aminoacylation ribozyme variant] , please.
Solution: 0.944

Problem: Recorded self-aminoacylation of CUACUCCAAACAAUCGGACUG [Fam1A.1 aminoacylation ribozyme variant] , please.
Solution: 0.762

Problem: Recorded self-aminoacylation of AGGACCCUGGUCAUCGAGUGA [Fam2.1 aminoacylation ribozyme variant] , please.
Solution: 10.5

Problem: Recorded self-aminoacylation of AUUACCAUAGUCAUCGAGUGA [Fam2.1 aminoacylation ribozyme variant] , please.
Solution: 7.07

Problem: Recorded self-aminoacylation of AAGUUUGCUAAUAGUAGCAAU [Fam3.1 aminoacylation ribozyme variant] , please.
Solution: 1.57

Problem: Recorded self-aminoacylation of AUUCACCUAGGUCAUCGGUUG [Fam2.2 aminoacylation ribozyme variant] , please.
Solution: 1.01

Measured values drawn from the supplement of paper PMC9233669 for this set.
